Give displacement for every item shown.
biological target: Bcl-2-like protein 10 (Homo sapiens) (UniProt Q9HD36); assay: displacers of TR3 peptide from Bcl-B, primary screen, selectivity assay for Bfl-1 inhibitor project, biochemical, fluorescence polarization, FITC-TR3 peptide (AID 748); conditions: FP displacement of FITC-TR3 peptide from Bcl-B; at 20 µM; stronger effect = higher value;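 note: plate controls were wells without compound for no effect and wells lacking Bcl-B protein for full effect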
Among all 96,000 compounds or so, about 100 (0.1%) were called active. Many of the other results were omitted from the sample, so actives are more common in it than they were. Measured potencies and affinities stand elsewhere.

Q) I'm curious: which displacement was measured for O=C(NCCCc1ccccc1)C1CCN(c2nnc(-n3cccc3)s2)CC1 tested on Bcl-2-like protein 10 (Homo sapiens) (UniProt Q9HD36)?
A) 6.7% (inactive)

Q) I'm curious: which displacement was measured for CC(CC(=O)N1CCc2ccccc21)c1ccccc1 (stereo not given) tested on Bcl-2-like protein 10 (Homo sapiens) (UniProt Q9HD36)?
A) 6.2% (inactive)

Q) I'm curious: which displacement was measured for c1csc(Cn2c(-c3cccs3)nc3ccccc32)c1 tested on Bcl-2-like protein 10 (Homo sapiens) (UniProt Q9HD36)?
A) -27.7% (inactive)

Q) I'm curious: which displacement was measured for Cc1ccc(S(=O)(=O)NNC(=O)C2Cc3c(ccc4ccccc34)O2)cc1 (stereo not given) tested on Bcl-2-like protein 10 (Homo sapiens) (UniProt Q9HD36)?
A) -1.6% (inactive)

Q) I'm curious: which displacement was measured for CCOC(=O)c1ccc(NC2OC(=O)c3ccccc32)cc1 (stereo not given) tested on Bcl-2-like protein 10 (Homo sapiens) (UniProt Q9HD36)?
A) -4.1% (inactive)

Q) I'm curious: which displacement was measured for CC1(C)OC(=O)C2(Cc3ccccc3N3CCCCC32)C(=O)O1 (stereo not given) tested on Bcl-2-like protein 10 (Homo sapiens) (UniProt Q9HD36)?
A) 3.5% (inactive)

Q) I'm curious: which displacement was measured for CC(C)CC(=O)Nc1cccc(-c2nc3ccccc3o2)c1 tested on Bcl-2-like protein 10 (Homo sapiens) (UniProt Q9HD36)?
A) 5.6% (inactive)

Q) I'm curious: which displacement was measured for O=C1c2ccccc2C(=O)C12Cc1ccccc1N1CCN(c3ccccc3)CC12 (stereo not given) tested on Bcl-2-like protein 10 (Homo sapiens) (UniProt Q9HD36)?
A) -0.1% (inactive)

Q) I'm curious: which displacement was measured for Cc1ccsc1/C=N/n1cnc2sc(C)c(C)c2c1=O tested on Bcl-2-like protein 10 (Homo sapiens) (UniProt Q9HD36)?
A) -9.7% (inactive)

Q) I'm curious: which displacement was measured for Clc1ccc(CN(Cc2ccccc2)C(c2cccs2)c2nnnn2C2CCCC2)cc1 (stereo not given) tested on Bcl-2-like protein 10 (Homo sapiens) (UniProt Q9HD36)?
A) -9.7% (inactive)

Q) I'm curious: which displacement was measured for CC(/C=C/c1ccco1)=N/NC(=O)Cc1cccs1 tested on Bcl-2-like protein 10 (Homo sapiens) (UniProt Q9HD36)?
A) -47.4% (inactive)

Q) I'm curious: which displacement was measured for Cc1nn(C)cc1CNC(=O)c1cccc(Cl)c1 tested on Bcl-2-like protein 10 (Homo sapiens) (UniProt Q9HD36)?
A) 3.4% (inactive)

Q) I'm curious: which displacement was measured for Cc1cc(C)nc(/N=C(\N)C2=C(O)CC(C)(C)CC2=O)n1 tested on Bcl-2-like protein 10 (Homo sapiens) (UniProt Q9HD36)?
A) -12.3% (inactive)

Q) I'm curious: which displacement was measured for Cc1nc(SCC(=O)NCc2ccco2)[nH]c(=O)c1C tested on Bcl-2-like protein 10 (Homo sapiens) (UniProt Q9HD36)?
A) -5.3% (inactive)

Q) I'm curious: which displacement was measured for CN1CCN(CCCNC(=O)C2CCN(c3nnc(-n4cccc4)s3)CC2)CC1 tested on Bcl-2-like protein 10 (Homo sapiens) (UniProt Q9HD36)?
A) 8.6% (inactive)

Q) I'm curious: which displacement was measured for CC1(C)Cc2c(sc3c2c(=N)n(Cc2ccco2)c(=O)n3CC(=O)Nc2cccc(Cl)c2)CO1 tested on Bcl-2-like protein 10 (Homo sapiens) (UniProt Q9HD36)?
A) -38.7% (inactive)

Q) I'm curious: which displacement was measured for Cc1cccc(OCCCC(=O)O)c1 tested on Bcl-2-like protein 10 (Homo sapiens) (UniProt Q9HD36)?
A) -8.7% (inactive)

Q) I'm curious: which displacement was measured for c1coc(CNc2c3c(nc4ccccc24)CCC3)c1 tested on Bcl-2-like protein 10 (Homo sapiens) (UniProt Q9HD36)?
A) 26.6% (inactive)

Q) I'm curious: which displacement was measured for Cc1ccc2cccc(SCC(=O)N3CCOCC3)c2n1 tested on Bcl-2-like protein 10 (Homo sapiens) (UniProt Q9HD36)?
A) 1.9% (inactive)

Q) I'm curious: which displacement was measured for COc1cccc(Cn2c(-c3cccs3)noc2=O)c1 tested on Bcl-2-like protein 10 (Homo sapiens) (UniProt Q9HD36)?
A) -1.2% (inactive)

Attribution: PubChem BioAssay AID748
